These data points were gathered from paper PMC7530392.

Desensitization Max values by entry
- target.desc: S1P1 (Homo sapiens)
- Construct: host or cells: HUVEC (pooled donors)
- Sequence (P21453 whole entry): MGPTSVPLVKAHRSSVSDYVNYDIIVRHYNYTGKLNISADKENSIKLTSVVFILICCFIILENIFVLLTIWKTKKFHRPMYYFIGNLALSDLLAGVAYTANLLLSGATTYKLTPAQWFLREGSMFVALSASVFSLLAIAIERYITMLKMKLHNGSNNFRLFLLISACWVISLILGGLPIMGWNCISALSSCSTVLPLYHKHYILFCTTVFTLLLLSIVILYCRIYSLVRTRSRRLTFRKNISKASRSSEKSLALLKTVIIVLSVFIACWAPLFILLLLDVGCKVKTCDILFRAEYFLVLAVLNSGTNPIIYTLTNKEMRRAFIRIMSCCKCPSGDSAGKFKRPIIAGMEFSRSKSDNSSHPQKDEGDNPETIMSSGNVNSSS
- protocol.details: Desensitization of S1P-induced BNCI response in HUVEC (second stimulation with 80 nM S1P)
- Assay type: cell-based
- experimental.context: S1P-induced BNCI response curve maximum, arithmetic mean
reported.property: Desensitization Max

> print(dat)
                                   compound    reported.property  test.result
1  CC(C)Oc1ccc(-c2nc(-c3cccc4c3CC[C@@H]4NCCO)no2)cc1C#N  Desensitization Max         91.5
2  Cc1cc(-c2nc3cnc(Oc4cccc(Cl)c4)nc3o2)cc(C)c1OCC(=O)O  Desensitization Max         89.3
3  CCC/N=C1\S/C(=C\c2ccc(OC[C@H](O)CO)c(Cl)c2)C(=O)N1c1ccccc1C  Desensitization Max         79.3
4  CCc1cc(/C(C)=N/OCc2ccc(C3CCCCC3)c(C(F)(F)F)c2)ccc1CN1CC(C(=O)O)C1  Desensitization Max         96.8
